Tested on: one HCT116 p53+/+: CYC116 resistant clone
Experiment: MTT assay of CYC116 with or without Bcl-xL siRNA knockdown
Assay type: cell-based
Conditions: Homo sapiens, HCT-116; read-out: IC50 value after knockdown of Bcl-xL
Quantity: IC50 (nM)
The answer is to be given in nM; state only the numeric part.

Requested field: IC50. Item: `Cc1nc(N)sc1-c1ccnc(Nc2ccc(N3CCOCC3)cc2)n1`
900

###

System: R4.1 (HCT116 p53−/− ZM447439 resistant clone)
Assay: Cell proliferation (MTT) IC50, cross-resistance profile
Assay type: cell-based
Settings: Homo sapiens, HCT-116; clone R4.1
Quantity: pIC50
Answer as the number alone; pIC50 is minus log10 of concentration in mol/L.

Requested field: pIC50. Item: `Cc1cc(Nc2cc(N3CCN(C)CC3)nc(Sc3ccc(NC(=O)C4CC4)cc3)n2)n[nH]1`
6.10

Requested field: pIC50. Item: `O=C(O)c1ccc(Nc2ncc3c(n2)-c2ccc(Cl)cc2C(c2c(F)cccc2F)=NC3)cc1`
4.66

FYI, the data here is from patent US20140336073A1.
